Test system: Streptococcus faecalis (BCM-010)
Test: Antimicrobial activity, microdilution in microtiter plate (MIC)
Format: cell-based
Settings: Streptococcus faecalis BCM-010 (SALVAT collection); two-fold serial dilutions, 96 well plates; incubation 24 h at 35° C.
Readout: BCM-010 MIC

Solved entries:
Nc1ccc(C(=O)NCC(=O)N2CCN(c3ccc(-c4cc(CNc5ccon5)on4)cc3F)CC2)c(O)c1 :: 0.25 to 0.5 µg/mL
O=C(NCC(=O)N1CCN(c2ccc(-c3cc(CO)on3)cc2F)CC1)c1ccc2cccc(O)c2n1 :: 0.5 µg/mL
O=C(NCC(=O)N1CCN(c2c(F)cc(-c3cc(CNc4ccon4)on3)cc2F)CC1)c1ccc2cccc(O)c2n1 :: 0.25 µg/mL
Cc1ccc(C(=O)N[C@H](C(=O)N2CCN(c3ccc(-c4cc(CNc5ccon5)on4)cc3F)CC2)C(C)C)cn1 :: 4 µg/mL
Cc1nc2cc(C(=O)NCC(=O)N3CCN(c4ccc(-c5cc(CNc6ccon6)on5)cc4F)CC3)ccc2n1CC1CC1 :: 2 µg/mL

List reported BCM-010 MIC for each of these compounds:
1. O=C(NCC(=O)N1CCN(c2ccc(-c3cc(CNc4ccon4)on3)cc2F)CC1)c1ccc([N+](=O)[O-])o1
2. Cc1ncc(-c2cccc(C(=O)NCC(=O)N3CCN(c4ccc(-c5cc(CNc6ccon6)on5)cc4F)CC3)c2)s1

1. 0.5 to 1 µg/mL
2. 1 µg/mL

List reported BCM-010 MIC for each of these compounds:
1. C#CCn1c(C)nc2cc(C(=O)NCC(=O)N3CCN(c4ccc(-c5cc(CNc6ccon6)on5)cc4F)CC3)ccc21
2. C[C@@H](NC(=O)c1ncccc1N)C(=O)N1CCN(c2ccc(-c3cc(CNc4ccon4)on3)cc2F)CC1
3. CN(CC(=O)N1CCN(c2ccc(-c3cc(CNc4ccon4)on3)cc2F)CC1)C(=O)c1ccc2[nH]cnc2c1
4. CC(=O)Nc1ccc(C(=O)NCC(=O)N2CCN(c3ccc(-c4cc(CNc5ccon5)on4)cc3F)CC2)cn1
5. O=CNCC(=O)N1CCN(c2ccc(-c3cc(CNc4ccon4)on3)cc2F)CC1
6. Cc1ccc(C(=O)N[C@@H](C)C(=O)N2CCN(c3ccc(-c4cc(CO)on4)cc3F)CC2)cn1

["2 µg/mL", "1 µg/mL", "2 µg/mL", "1 µg/mL", "2 µg/mL", "1 µg/mL"]

List reported BCM-010 MIC for each of these compounds:
1. O=C(NC(C(=O)N1CCN(c2ccc(-c3cc(CNc4ccon4)on3)cc2F)CC1)c1ccccc1)c1ccc2[nH]cnc2c1 (stereo not shown)
2. CNCC(=O)NCC(=O)N1CCN(c2ccc(-c3cc(CNc4ccon4)on3)cc2F)CC1

2 µg/mL
2 µg/mL

Which BCM-010 MIC is listed for O=C(NCC(=O)N1CCN(c2ccc(-c3cc(CNc4ccon4)on3)cc2F)CC1)c1cccc(O)c1 ? 0.25 to 0.5 µg/mL

----------
Kindly state BCM-012 MIC for each of the entries shown.
Tested on: Staphylococcus aureus (BCM-012)
Experiment: Antimicrobial activity, microdilution in microtiter plate (MIC)
Assay type: cell-based
Conditions: Staphylococcus aureus BCM-012 (SALVAT collection); two-fold serial dilutions, 96 well plates; incubation 24 h at 35° C.
Numbers only, in µg/mL.

O=C(NCC(=O)N1CCN(c2ccc(-c3cc(CO)on3)cc2F)CC1)c1ccc2cccc(O)c2n1 :: 0.5
CN(CC(=O)N1CCN(c2ccc(-c3cc(CNc4ccon4)on3)cc2F)CC1)C(=O)c1ccc2[nH]cnc2c1 :: 2
O=C(NCC(=O)N1CCN(c2ccc(-c3cc(CNc4ccon4)on3)cc2F)CC1)c1ccc([N+](=O)[O-])o1 :: 0.25
O=C(NCC(=O)N1CCN(c2c(F)cc(-c3cc(CNc4ccon4)on3)cc2F)CC1)c1ccc2cccc(O)c2n1 :: 0.25

List reported BCM-012 MIC for each of these molecules:
1. Cc1nc2cc(C(=O)NCC(=O)N3CCN(c4ccc(-c5cc(CNc6ccon6)on5)cc4F)CC3)ccc2n1CC1CC1
2. Cc1ccc(C(=O)N[C@H](C(=O)N2CCN(c3ccc(-c4cc(CNc5ccon5)on4)cc3F)CC2)C(C)C)cn1

[2, 4]
